Where these numbers come from: PubChem BioAssay AID2060613

Tested on: 233499-124-R-J3-PDC complex spheroid viability;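 also: spheroids exposed to the drug combinations for seven days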
Experiment: Anticancer human tumor 233499-124-R-J3-PDC patient-derived colon adenocarcinoma cell line growth inhibition [CLK]; active = viability on the fitted dose curve at most 10% of control; inactive = the rest
Settings: second compound 0.316 µM; first compound 10 µM
Your answer must be one of the following: yes for active, no for inactive

As a guide, the following entries are already answered.
- Nc1ccn(C2OC(CO)C(O)C2(F)F)c(=O)n1 (stereo not drawn) + CN1CCN(c2cc(C(=O)Nc3cc4cc(-c5cnn(C)c5)ccc4cn3)ccn2)CC1: yes
- CC(=O)O[C@H]1C(=O)[C@@]2(C)[C@H]([C@H](OC(=O)c3ccccc3)[C@]3(O)C[C@H](OC(=O)[C@H](O)[C@@H](NC(=O)c4ccccc4)c4ccccc4)C(C)=C1C3(C)C)[C@]1(OC(C)=O)CO[C@@H]1C[C@@H]2O + CN1CCN(c2cc(C(=O)Nc3cc4cc(-c5cnn(C)c5)ccc4cn3)ccn2)CC1: no

--- query ---
Hi, do you know how CC1COCCN1c1cc(C2(S(C)(=N)=O)CC2)nc(-c2ccnc3[nH]ccc23)n1 (stereo not drawn) + CN1CCN(c2cc(C(=O)Nc3cc4cc(-c5cnn(C)c5)ccc4cn3)ccn2)CC1 came out in this test? no
